- test target: Myc/Max binding to DNA (Homo sapiens)
- Sequence (P01106 whole entry): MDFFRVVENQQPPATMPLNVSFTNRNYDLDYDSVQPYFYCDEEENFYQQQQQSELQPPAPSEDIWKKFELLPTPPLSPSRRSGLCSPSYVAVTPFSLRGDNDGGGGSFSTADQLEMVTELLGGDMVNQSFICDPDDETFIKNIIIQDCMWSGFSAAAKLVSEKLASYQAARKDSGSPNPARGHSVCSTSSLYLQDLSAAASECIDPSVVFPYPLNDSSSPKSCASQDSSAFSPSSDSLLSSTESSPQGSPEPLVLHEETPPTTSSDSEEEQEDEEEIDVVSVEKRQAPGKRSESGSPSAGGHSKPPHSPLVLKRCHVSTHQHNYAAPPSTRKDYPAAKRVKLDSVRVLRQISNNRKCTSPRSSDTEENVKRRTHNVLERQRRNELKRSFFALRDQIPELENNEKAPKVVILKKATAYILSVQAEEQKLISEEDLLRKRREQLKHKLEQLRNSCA
- test method notes: Electrophoretic mobility shift assay (EMSA) of Myc/Max binding to DNA
- Type: biochemical
- condition: EMSA, 100 uM test compound; read-out: Bound DNA (%) (100uM)
Friendly reminder: remaining activity at 100 µM below 90% is 1, at or above is -1.

Here's what some known entries look like.
[
  {
    "compound": "Oc1cc(OCc2ccc(Cl)cc2)ccc1-c1[nH]nc(C(F)(F)F)c1-c1ccc2c(c1)OCCO2",
    "test target": "Myc/Max binding to DNA (Homo sapiens)",
    "cat": 1
  },
  {
    "compound": "Cn1nc(C(F)(F)F)c(-c2ccc(C#N)cc2)c1-c1ccc(OCc2ccc(Cl)cc2)cc1O",
    "test target": "Myc/Max binding to DNA (Homo sapiens)",
    "cat": 1
  },
  {
    "compound": "Oc1cc(OCc2ccc(Cl)cc2)ccc1-c1cc(C(F)(F)F)n(Cc2ccccc2)n1",
    "test target": "Myc/Max binding to DNA (Homo sapiens)",
    "cat": -1
  },
  {
    "compound": "Cn1nc(-c2ccc(OCCN3CCOCC3)cc2O)c(Oc2ccccc2Cl)c1C(F)(F)F",
    "test target": "Myc/Max binding to DNA (Homo sapiens)",
    "cat": -1
  },
  {
    "compound": "CCc1ccc(Oc2c(-c3ccc(OCc4cccc(OC)c4)cc3O)n[nH]c2C(F)(F)F)cc1",
    "test target": "Myc/Max binding to DNA (Homo sapiens)",
    "cat": 1
  }
]

Challenge: Here's an entry: `Oc1cc(OCc2ccc(Cl)cc2)ccc1-c1n[nH]cc1-c1ccoc1` . Is its remaining activity at 100 µM below 90%?
Response given: 1

Challenge: Lab note: confirm whether the reported remaining activity at 100 µM for this compound is below 90%, equality not counting. compound: `Cn1cc(-c2cn(C)nc2-c2ccc(OCc3ccc(Cl)cc3)cc2O)cn1`
Response given: -1
